// data source = PubChem BioAssay

System: Inhibin beta A chain (activin A)
Assay: INHBA (activin A) binders on microarrays, primary screen, biochemical, small-molecule microarray, 635 nm fluorescence scan (AID 1107);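 also: mouse activin A protein probed at 4.33 µg/mL on printed slides; score merges bound-protein fluorescence near 667 nm with spot signal-to-noise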
Conditions: small-molecule microarray binding, higher = more signal
The following molecules are listed with their measured composite z-score values.

| SMILES RECORD | composite z-score |
| --- | --- |
| CCOC(=O)C[C@H]1[C@H](OC(=O)c2cc3ccccc3oc2=O)[C@@H](NC(=O)c2ccc(-c3ccccc3)cc2)c2cc(OCCCO)ccc2N1C(=O)Cc1ccc(OC)cc1 | 0.321 |
| [N-]=[N+]=Nc1ccccc1C[C@@]1(C(=O)NCc2ccccc2)N=C(c2ccc(OCCCO)cc2)O[C@@H]1c1ccccc1 | 0.838 |
| CC(C)N1C(=O)[C@@]2(Cc3ccccc31)c1ccccc1C(=O)N(Cc1ccccc1)[C@H]2c1ccc(CO)cc1 | 0.931 |
| CCOC(=O)C1=C[C@@H](C(C)(C)C)N(S(=O)(=O)c2ccc(C)cc2)[C@H]1c1ccc(OC)cc1 | 0.318 |
| C=C(/C=C\CNS(=O)(=O)c1ccc(C)cc1)[C@H](O)[C@H]1CCCN1S(=O)(=O)c1ccccc1[N+](=O)[O-] | 0.509 |

----------
Target: NADPH oxidase 4 (Homo sapiens)
Experiment: NOX4-dependent H2O2 signal modulators, primary screen, NOX inhibitor project, cell-based, HEK293-NOX4, tetracycline-induced, Amplex Red fluorescence (AID 1160)
Settings: 45 min, higher = more signal, called active from +8 up or from −8 down
MEASURED ATTRIBUTE: z-score

| COMPOUND | RESULT NUMBER |
| --- | --- |
| CCCNC(=O)[C@@]1(Sc2ccc(C)cc2)CC(=O)N(Cc2cc(C(F)(F)F)cc(C(F)(F)F)c2)[C@@H]1c1ccc(CO)cc1 | -0.589 |
| C=C(COC)C(=O)CC[C@H](OC(C)=O)c1ccc(CO)o1 | -0.207 |
| CO[C@H]1O[C@H](CO)[C@@H](OC(=O)Nc2ccccc2)[C@@H]2OC(=O)[C@@H](Cc3ccccc3)C/C=C/C[C@H](Cc3ccccc3)C(=O)O[C@@H]12 | -0.266 |
| CCc1cccc(NC(=O)O[C@H]2[C@H](OC(=O)Nc3ccccc3-c3ccccc3)[C@H](OC(=O)Nc3ccccc3-c3ccccc3)[C@@H](OC)O[C@@H]2CO)c1 | -0.477 |
| C=CCOC(=O)[C@@H]1[C@H]2C(=O)O[C@H](c3ccccc3)[C@H](c3ccccc3)N2[C@H](c2ccc(OCCOC(=O)[C@H]3C[C@H]4C(=O)N[C@@H](CCCCN(C)C)C(=O)N4[C@H]3c3cccc(OCCO)c3)cc2)[C@@]12C(=O)Nc1ccccc12 | -0.186 |
| Cc1ccc(S(=O)(=O)N2[C@@H](c3ccccc3)C(C(=O)O)=C[C@H]2C(C)(C)C)cc1 | -0.539 |
| COC(=O)Cn1c(C(=O)N(C)C)cc2c1C[C@H]1CN(C(=O)c3ccccc3)[C@@](Cc3ccccc3)(C(=O)OC)[C@@H]21 | 1.59 |
| C=C(C(=O)CC[C@@H](OC(=O)c1cccnc1)c1cccc(OCCO)c1)C(C)C | -0.193 |
| C=C(CCCC)/C(=C/C[C@@H](OC(C)=O)c1ccc(OCCO)cc1)c1cc(C(=O)OC)ccc1OC | -1.43 |
| COC(=O)[C@@]1(Cc2ccc(F)cc2)[C@H]2c3cc(C(=O)N4CCCC4)n(C[C@H](O)CO)c3C[C@H]2CN1C(=O)c1ccccc1 | -0.364 |
| CO[C@H]1O[C@H](CO)[C@@H](OC(=O)CCc2ccccc2)[C@@H]2OC(=O)[C@@H](Cc3ccc4ccccc4c3)C/C=C/C[C@H](Cc3ccc4ccccc4c3)C(=O)O[C@@H]12 | -0.27 |
| COc1ccc([Si](C)(C)[C@H]2[C@H](CC(=O)N3CCC[C@H]3CO)O[C@@]3(C(=O)N(Cc4cccc(N5CCCCC5=O)c4)c4ccccc43)[C@@H]2C)cc1 | 1.44 |
| C=CCNC(=O)[C@@H]1[C@H]2C(=O)O[C@H](c3ccccc3)[C@H](c3ccccc3)N2[C@H](c2ccc(OCCO)cc2)[C@@]12C(=O)Nc1ccc(C#CC3=CCCCC3)cc12 | -0.894 |
| COc1c(C)cc(-c2nc(-c3ccccc3)c3c(c2C)CO[Si]3(C(C)C)C(C)C)cc1C | 0.529 |
| C=C(C)C1CN([C@H](CO)c2ccccc2)C(=O)/C1=C\c1ccccc1 (stereo not given in full) | 0.0494 |

----------
Test: basal S. cerevisiae growth modulation, no modifier, primary screen, OD600, strain BY4716, 24 h, basal condition (AID 1173)
Settings: OD600, 24 h, higher = more signal, called active from +8 up or from −8 down
The following compounds are listed with their measured z-score values.
MEASURED ATTRIBUTE: z-score

| COMPOUND | MEASURED ATTRIBUTE | RESULT NUMBER |
| --- | --- | --- |
| CC(C)c1ccc(NN2C(C(O)C3CCCCC3)C=CC3C(=O)N(c4ccccc4)C(=O)C32)cc1 (stereo not given) | z-score | -0.618 |
| [N-]=[N+]=NCc1ccccc1[C@H]1OC(c2ccc(OCCCO)cc2)=N[C@@]1(Cc1ccccc1N=[N+]=[N-])C(=O)O | z-score | -4.15 |
| CC1(C)OB(/C=C\CC(OC(=O)c2ccncc2)c2ccccc2)OC1(C)C (stereo not given) | z-score | -1.17 |
| C=CCN1C(=O)[C@@]2(O[C@@H](CCO)[C@H]([Si](C)(C)c3ccc(OC)cc3)[C@H]2C)c2cc(N3CCCCC3=O)ccc21 | z-score | 0.208 |
| O=C(CS)NCCCCCCNC(=O)[C@H]1C[C@H]2C(=O)NCC(=O)N2[C@H]1c1cccc(OCCO)c1 | z-score | -0.462 |
| COc1ccc([Si](C)(C)[C@@H]2[C@@H](CC(=O)N(CCO)Cc3ccccc3)O[C@]3(C(=O)N(Cc4cccc(I)c4)c4ccccc43)[C@H]2C)cc1 | z-score | -0.142 |
| CN(C)CCCCCCNC(=O)[C@@H]1C[C@@H]2C(=O)N[C@@H](CCCC[N+](C)(C)C)C(=O)N2[C@@H]1c1cccc(OCCO)c1 | z-score | -0.834 |
| C=C1C(=O)C=C2CN(C(=O)c3ccccc3)[C@@](Cc3ccc(F)cc3)(C(=O)OC)[C@@H]12 | z-score | -11.8 |
| CCCN1C(=O)[C@@]2(c3ccc([N+](=O)[O-])cc3)CC(=O)N(C3CCCCC3)[C@@H]2c2ccc(CO)cc21 | z-score | 1.88 |
| CCCCCCc1nc(Cc2cc(OC)c(OC)c(OC)c2)c(C)c2c1[Si](C(C)C)(C(C)C)OC2 | z-score | -0.944 |

----------
The following molecules are listed with their measured composite z-score values.
Tested on: Neuregulin-1 EGF-like domain
Test: binders of neuregulin-1 EGF-like domain, primary screen, biochemical, small-molecule microarray, 635 nm fluorescence (AID 1081);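 also: binding of the protein to compounds printed on small-molecule microarray slides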
Details: small-molecule microarray binding, higher = more signal

| MOLECULE | composite z-score |
| --- | --- |
| CCCCN1CC=CC23O[C@@H]4/C=C\CCC(C)OC(=O)C4[C@H]2C(=O)N(CCO)[C@@H]3C1=O (stereo partly drawn) | 1.12 |
| C=CCC(OC(C)=O)[C@@H]1[C@@H](N(Cc2cccc3ccccc23)C(=O)c2ccc(C)cc2)c2cc(OCCCO)ccc2N1C(=O)Cc1ccc2ccccc2c1 (stereo partly drawn) | -0.665 |
| Cc1cccc([C@H]2C[C@H]3C(Br)=C[C@@]2(CO)C(=O)[C@]32CO2)c1 | 0.708 |
| COc1ccc(C(O)C2C=CC3C(=O)N(c4ccccc4)C(=O)C3N2Nc2ccccc2F)c2ccccc12 (stereo not drawn) | 1.23 |
| CC1CC/C=C\[C@H]2OC34C=CCN(CCN5CCOCC5)C(=O)[C@H]3N(C(CO)C(C)C)C(=O)[C@@H]4C2C(=O)O1 (stereo partly drawn) | 0.907 |
| C=CCNC(=O)[C@@H]1[C@H]2C(=O)O[C@H](c3ccccc3)[C@H](c3ccccc3)N2[C@H](c2ccc(OCCO)cc2)[C@@]12C(=O)N(C(=O)OCCOC)c1ccccc12 | 1.25 |
| Cc1ccc(S[C@]2(C(=O)NCCN3CCOCC3)CC(=O)N(C(C)C)[C@@H]2c2ccc(CO)cc2I)cc1 | 1.35 |
| C#CCN(C(=O)OC(C)(C)C)[C@H](CO)c1ccccc1 | 0.77 |
| COCCCNC(=O)[C@@]1(Cc2ccccc2I)c2ccccc2C(=O)N(Cc2ccccc2C(F)(F)F)[C@H]1c1ccc(CO)cc1 | 1.05 |
| COC(=O)[C@@]1(Cc2ccc(OC)cc2)[C@@H]2[C@@H](CC(=O)[C@H]2CC(=O)C(=O)N(C)C)CN1C(=O)c1ccccc1 | 1.06 |
| O=C1O[C@@H](c2ccccc2)[C@@H](c2ccccc2)N2[C@@H](c3ccc(OCCO)cc3)[C@]3(C(=O)Nc4ccc(C#CC5=CCCCC5)cc43)[C@@H](C(=O)Nc3nc4ccccc4s3)[C@H]12 | 0.651 |
| COC(=O)C(CC#Cc1ccc2c(c1)[C@]1(C(=O)N2)[C@H](C(=O)N2CCCCCCC2)[C@H]2C(=O)O[C@H](c3ccccc3)[C@H](c3ccccc3)N2[C@@H]1c1ccc(OCCO)cc1)C(=O)OC | 1.33 |
| CC1C2C(CCCO)=CC(C3C(=O)N(C)C(=O)C23)N1Cc1cccc(OC(F)(F)F)c1 (stereo not drawn) | 1.37 |
